Overview of recorded Vmax for various compounds
- Measured On: LmTK (Leishmania major)
- Experiment Notes: TK activity, enzyme coupled spectrophotometric assay (substrate kinetics)
- Assay type: biochemical
- Condition Summary: recombinant full-length LmTK, 25°C, pH 7.4
- Experimental: TK activity was measured spectrophotometrically using an enzyme coupled assay in buffer containing 50 mM Tris-HCl pH 7.4, 5 mM MgCl2, 50 mM KCl, 1 mM DTT, 0.5 mM ATP, 0.5 mM phosphoenolpyruvate (PEP), 0.2 mM NADH, 0.2 mM thymidine (dThd), 2 U pyruvate kinase (PK), 4 U lactate dehydrogenase (LDH) and variable amounts of enzyme. […]
# number only, unit µmol/min/mg dropped from output

These solved cases illustrate the format of a correct answer.
1. O=c1ccn([C@@H]2O[C@H](CO)[C@@H](O)[C@H]2O)c(=O)[nH]1 [Urd] :: 0.79
2. Cc1cn([C@H]2C[C@H](N=[N+]=[N-])[C@@H](CO)O2)c(=O)[nH]c1=O [AZT, 3’-azido-3’-deoxythymidine] :: 3.52
3. O=c1ccn([C@H]2C[C@H](O)[C@@H](CO)O2)c(=O)[nH]1 [dUrd] :: 5.45
4. O=c1[nH]c(=O)n([C@H]2C[C@H](O)[C@@H](CO)O2)cc1F [5F-2’dU] :: 8.29

Item O=c1[nH]c(=O)n([C@H]2C[C@H](O)[C@@H](CO)O2)cc1CO [5CH2OH-2’dU] ; assay system LmTK (Leishmania major); Vmax reported as 5.01

Item O=c1[nH]c(=O)n([C@H]2C[C@H](O)[C@@H](CO)O2)cc1Br [5Br-2’dU] ; assay system LmTK (Leishmania major); Vmax reported as 6.17

====

- Measured On: LmTK (Leishmania major)
- Experiment Notes: TK activity, enzyme coupled spectrophotometric assay (substrate kinetics)
- Type: biochemical
- Condition Summary: 10 mM substrate
Marks after values point to notes of the source that are not given here.
Outcome Measure: Activity measurements at 10 mM substrate concentration (Vmax)

These solved cases illustrate the format of a correct answer.
1) Nc1ncnc2c1ncn2[C@@H]1O[C@H](CO)[C@@H](O)[C@H]1O [Ado, adenosine] :: 0.00 ^a μmol∙min^-1∙mg^-1
2) O=c1[nH]cnc2c1ncn2[C@H]1C[C@H](O)[C@@H](CO)O1 [dIno] :: 0.04 ^a μmol∙min^-1∙mg^-1
3) Nc1nc2c(ncn2[C@H]2C[C@H](O)[C@@H](CO)O2)c(=O)[nH]1 [dGuo] :: 0.04 ^a μmol∙min^-1∙mg^-1

Item Nc1ccn([C@H]2C[C@H](O)[C@@H](CO)O2)c(=O)n1 [dCyd] ; assay system LmTK (Leishmania major); Activity measurements at 10 mM substrate concentration (Vmax) reported as 0.07 ^a μmol∙min^-1∙mg^-1

Item Nc1ccn([C@@H]2O[C@H](CO)[C@@H](O)[C@H]2O)c(=O)n1 [Cyd] ; assay system LmTK (Leishmania major); Activity measurements at 10 mM substrate concentration (Vmax) reported as 0.00 ^a μmol∙min^-1∙mg^-1

Item C[C@H]1O[C@@H](n2cc(F)c(=O)[nH]c2=O)[C@H](O)[C@@H]1O [5F-5’dU] ; assay system LmTK (Leishmania major); Activity measurements at 10 mM substrate concentration (Vmax) reported as 0.00 ^a μmol∙min^-1∙mg^-1

Item Nc1nc2c(ncn2[C@@H]2O[C@H](CO)[C@@H](O)[C@H]2O)c(=O)[nH]1 [Guo] ; assay system LmTK (Leishmania major); Activity measurements at 10 mM substrate concentration (Vmax) reported as 0.00 ^a μmol∙min^-1∙mg^-1

Item Nc1ncnc2c1ncn2C1CC(O)C(CO)O1 (centres unmarked) [dAdo] ; assay system LmTK (Leishmania major); Activity measurements at 10 mM substrate concentration (Vmax) reported as 0.01 ^a μmol∙min^-1∙mg^-1

====

- Measured On: LmTK (Leishmania major, UniProt Q4QC75)
- Sequence (Q4QC75 entry or part of it): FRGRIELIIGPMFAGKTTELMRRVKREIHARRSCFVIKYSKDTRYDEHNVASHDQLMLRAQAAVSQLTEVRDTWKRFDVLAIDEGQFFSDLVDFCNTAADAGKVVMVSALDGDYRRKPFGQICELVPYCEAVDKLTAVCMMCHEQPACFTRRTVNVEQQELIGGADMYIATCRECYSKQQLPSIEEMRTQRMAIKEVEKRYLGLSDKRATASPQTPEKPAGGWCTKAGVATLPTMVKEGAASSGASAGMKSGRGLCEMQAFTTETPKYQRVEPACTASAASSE
Outcome Measure: pIC50
Just so you know, pIC50 here is -log10 of the concentration in molar units; reply with that number alone.

1) Nc1nc2c(ncn2[C@H]2C[C@H](O)[C@@H](COP(=O)(O)OP(=O)(O)OP(=O)(O)O)O2)c(=O)[nH]1 :: 3.26
2) Cc1cn([C@H]2C[C@H](O)[C@@H](COP(=O)(O)OP(=O)(O)OP(=O)(O)OP(=O)(O)OP(=O)(O)OC[C@H]3O[C@@H](n4cnc5c(N)ncnc54)[C@H](O)[C@@H]3O)O2)c(=O)[nH]c1=O :: 5.96

Item Cc1cn([C@H]2C[C@H](O)[C@@H](COP(=O)(O)OP(=O)(O)OP(=O)(O)O)O2)c(=O)[nH]c1=O [dTTP, 2'-deoxythymidine triphosphate] ; assay system LmTK (Leishmania major, UniProt Q4QC75); pIC50 reported as 5.42

Item `O=c1ccn([C@H]2C[C@H](O)[C@@H](COP(=O)(O)OP(=O)(O)OP(=O)(O)O)O2)c(=O)[nH]1` ; assay system LmTK (Leishmania major, UniProt Q4QC75); pIC50 reported as 3.73

Item `Nc1ccn([C@H]2C[C@H](O)[C@@H](COP(=O)(O)OP(=O)(O)OP(=O)(O)O)O2)c(=O)n1` ; assay system LmTK (Leishmania major, UniProt Q4QC75); pIC50 reported as 2.90

Item Cc1cn([C@H]2C[C@H](O)[C@@H](COP(=O)(O)O)O2)c(=O)[nH]c1=O [dTMP, thymidine monophosphate] ; assay system LmTK (Leishmania major, UniProt Q4QC75); pIC50 reported as 3.78

====

Overview of recorded log10 of kcat for various molecules
- Measured On: UniProt:Q4QC75
- Experiment Notes: TK activity, enzyme coupled spectrophotometric assay (substrate kinetics)
- Format: biochemical
- Condition Summary: recombinant full-length LmTK
Friendly reminder: values = log10 of kcat, unit s⁻¹.

These solved cases illustrate the format of a correct answer.
1) O=c1[nH]c(=O)n([C@H]2C[C@H](O)[C@@H](CO)O2)cc1F :: 0.67
2) O=c1[nH]c(=O)n([C@H]2C[C@H](O)[C@@H](CO)O2)cc1Br :: 0.54
3) Cc1cn([C@H]2C[C@H](N=[N+]=[N-])[C@@H](CO)O2)c(=O)[nH]c1=O :: 0.29
4) O=c1ccn([C@@H]2O[C@H](CO)[C@@H](O)[C@H]2O)c(=O)[nH]1 :: -0.36
5) O=c1[nH]c(=O)n([C@H]2C[C@H](O)[C@@H](CO)O2)cc1CO :: 0.45

Attention now turns to another entry.
Item `O=c1ccn([C@H]2C[C@H](O)[C@@H](CO)O2)c(=O)[nH]1` ; assay system UniProt:Q4QC75; log10 of kcat reported as 0.49
